Assignment: determine reported half-life for the given molecules.
- METHOD: Half life in anesthetized C57BL/6J mouse plasma at 10 mg/kg, ip administered as single dose measured upto 240 mins by LC-MS/MS analysis
- Type: ADME, organism-based

The cases that follow already have their half-life on record.
INSERT INTO assay_data (molecule, reported_measurement) VALUES
  ('CCCCCc1cc2c(c(O)c1C(=O)O)[C@@H]1C=C(C)CC[C@H]1C(C)(C)O2 [DELTA9-TETRAHYDROCANNABINOLIC ACID A]', '1.12 h'),
  ('CCCc1cc(O)c(C/C=C(\C)CCC=C(C)C)c(O)c1C(=O)O', '3.4 h'),
  ('CCCCCc1cc(O)c(C/C=C(\C)CCC=C(C)C)c(O)c1C(=O)O [CANNABIGEROLIC ACID]', '1.03 h');

For the next question, use this molecule.
INPUT: Can you share its half-life? I mean this molecule: C=C(C)[C@@H]1CCC(C)=C[C@H]1c1c(O)cc(CCCCC)c(C(=O)O)c1O [CANNABIDIOLIC ACID]
OUTPUT: 1.53 h
